# assay target: T1, recombinant human CEACAM5 (human, UniProt P06731 35-685, limits assumed)
# T1 construct: Immobilised by amine coupling on a CM5 chip
# T1 sequence (looked up): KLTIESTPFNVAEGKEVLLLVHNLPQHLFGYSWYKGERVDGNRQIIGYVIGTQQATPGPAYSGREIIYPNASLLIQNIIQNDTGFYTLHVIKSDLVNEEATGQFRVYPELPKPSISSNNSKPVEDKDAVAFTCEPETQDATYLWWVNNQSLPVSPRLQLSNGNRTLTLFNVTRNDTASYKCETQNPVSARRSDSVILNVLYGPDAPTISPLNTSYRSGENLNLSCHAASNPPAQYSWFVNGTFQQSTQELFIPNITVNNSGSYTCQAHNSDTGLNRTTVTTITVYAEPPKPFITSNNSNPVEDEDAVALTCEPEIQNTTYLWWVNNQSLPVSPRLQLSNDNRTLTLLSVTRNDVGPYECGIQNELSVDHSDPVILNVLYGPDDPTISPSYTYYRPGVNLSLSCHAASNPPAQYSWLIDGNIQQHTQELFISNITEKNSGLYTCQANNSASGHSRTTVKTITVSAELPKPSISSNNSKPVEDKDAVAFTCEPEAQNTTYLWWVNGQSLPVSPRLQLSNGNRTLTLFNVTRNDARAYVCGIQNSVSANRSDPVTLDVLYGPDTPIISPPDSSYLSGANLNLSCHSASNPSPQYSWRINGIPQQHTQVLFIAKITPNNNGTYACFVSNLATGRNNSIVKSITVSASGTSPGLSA
# test protocol: SPR Biacore 8K+, CEACAM5 amine-coupled on CM5, ISVD analyte, 1:1 fit
quantity name: kon (M⁻¹ s⁻¹)

[[record]]
binder = "T028501796 (VHH, K64Q vs precursor T028501789; also called A0315007E07(K64Q)) VHH: EVQLVESGGGVVQPGGSLRLSCAASGLTFSTYTMGWFRQAPGKEREFVAAIIWSGSNTYYADSVQGRFTISRDNAKNTVYLQMNSLRPEDTALYYCAAQHFGPIGLTTRGYHYWGQGTLVTVSS"
assay_value = 415000

[[record]]
binder = "T028501818 (VHH, K43E vs precursor T028501817; also called A0315024B02(M43E, Q64K, K83R)) VHH: EVQLVESGGGVVQPGGSLRLSCAASGHTFSEYALGWFRQAPGEEREFVAAINWGGGWTYYADSVKGRFTISRDNAKNTLYLQMNSLRPEDTALYYCAASSDYAGGNPTGYPYWGQGTLVTVSS"
assay_value = 215000

[[record]]
binder = "T028501797 (VHH, K64R vs precursor T028501789; also called A0315007E07(K64R)) VHH: EVQLVESGGGVVQPGGSLRLSCAASGLTFSTYTMGWFRQAPGKEREFVAAIIWSGSNTYYADSVRGRFTISRDNAKNTVYLQMNSLRPEDTALYYCAAQHFGPIGLTTRGYHYWGQGTLVTVSS"
assay_value = 675000

[[record]]
binder = "T028501817 (VHH, also called A031500099; A0315024B02(L11V, A14P, D16G S23A, M43K, Q64K, K83R, G85E, G89L)) VHH: EVQLVESGGGVVQPGGSLRLSCAASGHTFSEYALGWFRQAPGKEREFVAAINWGGGWTYYADSVKGRFTISRDNAKNTLYLQMNSLRPEDTALYYCAASSDYAGGNPTGYPYWGQGTLVTVSS"
assay_value = 238000

[[record]]
binder = "T028501823 (VHH, K64E vs precursor T028501817; also called A0315024B02(M43K, Q64E, K83R)) VHH: EVQLVESGGGVVQPGGSLRLSCAASGHTFSEYALGWFRQAPGKEREFVAAINWGGGWTYYADSVEGRFTISRDNAKNTLYLQMNSLRPEDTALYYCAASSDYAGGNPTGYPYWGQGTLVTVSS"
assay_value = 155000

[[record]]
binder = "T028501791 (VHH, K43Q vs precursor T028501789; also called A0315007E07(K43Q)) VHH: EVQLVESGGGVVQPGGSLRLSCAASGLTFSTYTMGWFRQAPGQEREFVAAIIWSGSNTYYADSVKGRFTISRDNAKNTVYLQMNSLRPEDTALYYCAAQHFGPIGLTTRGYHYWGQGTLVTVSS"
assay_value = 602000

[[record]]
binder = "T028501827 (VHH, K64A vs precursor T028501817; also called A0315024B02(M43K, Q64A, K83R)) VHH: EVQLVESGGGVVQPGGSLRLSCAASGHTFSEYALGWFRQAPGKEREFVAAINWGGGWTYYADSVAGRFTISRDNAKNTLYLQMNSLRPEDTALYYCAASSDYAGGNPTGYPYWGQGTLVTVSS"
assay_value = 295000

[[record]]
binder = "T028501804 (VHH, K75A vs precursor T028501789; also called A0315007E07(K75A)) VHH: EVQLVESGGGVVQPGGSLRLSCAASGLTFSTYTMGWFRQAPGKEREFVAAIIWSGSNTYYADSVKGRFTISRDNAANTVYLQMNSLRPEDTALYYCAAQHFGPIGLTTRGYHYWGQGTLVTVSS"
assay_value = 586000

[[record]]
binder = "T028501822 (VHH, K43A vs precursor T028501817; also called A0315024B02(M43A, Q64K, K83R)) VHH: EVQLVESGGGVVQPGGSLRLSCAASGHTFSEYALGWFRQAPGAEREFVAAINWGGGWTYYADSVKGRFTISRDNAKNTLYLQMNSLRPEDTALYYCAASSDYAGGNPTGYPYWGQGTLVTVSS"
assay_value = 225000


Value source: patent US20250236673A1
